Could you please report measured IC50 for the items listed next?
biological target: DNA dC->dU-editing enzyme APOBEC-3A (Homo sapiens); test: Dose Response confirmation of small molecule APOBEC3A DNA Deaminase Inhibitors via a fluorescence-based single-stranded DNA deaminase assay. [Related pubchem assays (depositor defined):AID493011, AID493024]; assay type: functional
Sequence (P31941 whole entry): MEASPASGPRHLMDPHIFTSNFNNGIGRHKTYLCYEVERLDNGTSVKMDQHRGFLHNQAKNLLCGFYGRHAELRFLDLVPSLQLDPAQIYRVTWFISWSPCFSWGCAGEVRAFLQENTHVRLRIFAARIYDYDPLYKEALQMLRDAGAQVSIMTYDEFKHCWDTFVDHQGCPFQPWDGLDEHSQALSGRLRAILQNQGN
Where a name gives a salt, the structure may show the parent alone. Active and inactive are the calls of the source. No rule for the calls is given here.

Missing value: IC50, DNA dC->dU-editing enzyme APOBEC-3A (Homo sapiens), entry COc1ccc(CN2CCNCC2)c(OC)c1OC [TRIMETAZIDINE DIHYDROCHLORIDE] . Fill in?
8.26 µM (active)

Quick check: IC50 on DNA dC->dU-editing enzyme APOBEC-3A (Homo sapiens), item COC(=O)C1=C(C)N(Cc2ccccc2)C(NCC(C)C)=N[C@H]1c1cccc(C(F)(F)F)c1 ?
2.88 µM (active)

What value of IC50 on DNA dC->dU-editing enzyme APOBEC-3A (Homo sapiens) does Nc1cc(N)nc(SCC(=O)Nc2ccc(Br)cc2Cl)n1 have?
4.42 µM (active)

Please provide the recorded IC50 for COC(=O)c1[nH]c2ccc(Cl)cc2c1NC(=O)CN1CCc2cc(OC)c(OC)cc2C1 , tested on DNA dC->dU-editing enzyme APOBEC-3A (Homo sapiens).
3.18 µM (active)

What reported IC50 corresponds to C=CCNC1=N[C@@H](c2cccc(C(F)(F)F)c2)C(C(=O)OC)=C(C)N1CC on DNA dC->dU-editing enzyme APOBEC-3A (Homo sapiens)?
3.56 µM (active)

# value lookup — system DNA dC->dU-editing enzyme APOBEC-3A (Homo sapiens), readout IC50, item CCCCCCCC[n+]1c(C)n(-c2ccccc2)c2ccc(NC(C)=O)cc21
1.44 µM (active)

* * *

target: Nonstructural protein 1 (Influenza A virus); type: functional, Influenza A virus (A/California/07/2009(H1N1))
Sequence (Q194T2 whole entry): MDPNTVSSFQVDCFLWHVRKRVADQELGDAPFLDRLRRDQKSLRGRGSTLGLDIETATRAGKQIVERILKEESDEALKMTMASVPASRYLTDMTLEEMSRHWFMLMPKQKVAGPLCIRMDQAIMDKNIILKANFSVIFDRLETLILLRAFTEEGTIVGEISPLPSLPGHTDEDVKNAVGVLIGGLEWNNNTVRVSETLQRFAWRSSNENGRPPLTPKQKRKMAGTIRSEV
The source made the active and inactive calls.
Hi there, I'd appreciate the recorded IC50 for every entry that follows.

Bench note: what IC50 did O=C(NN1C(=O)/C(=C/c2nc3ccccc3[nH]2)SC1=S)c1ccccc1 show?
> 100 µM (active)

Fill in the blank: the reported IC50 of O=C1C(NS(=O)(=O)c2cccs2)=C(N2CCN(c3ccccc3)CC2)C(=O)c2ccccc21 is ____.
21.6 µM (active)

I am curious: what IC50 value has been reported for O=[N+]([O-])c1ccc(Nc2ccc(N3CCOCC3)cc2)c([N+](=O)[O-])c1 ?
71.6 µM (active)

Which IC50 is reported for this compound? O=C1CSC(=S)N1N=Cc1ccccc1O
1.75 µM (active)

What value of measured IC50 is listed for CCc1cccc(NC(=O)CCCCCC2NC(=O)NC2C)c1 (stereo unspecified) ?
0.825 µM (active)

Which measured IC50 value corresponds to Cc1cccc(-n2cnc(C(=O)NN=C(S)Nc3ccccc3)c2)n1 ?
4.86 µM (active)

* * *

biological target: Genome polyprotein (dengue virus type 2, UniProt P29990); assay: flavivirus cap methylation enzyme inhibition – biochemical, confirmation dose response, primary screen (AID 588689); format: functional
Sequence (P29990 2492-3391 limits assumed): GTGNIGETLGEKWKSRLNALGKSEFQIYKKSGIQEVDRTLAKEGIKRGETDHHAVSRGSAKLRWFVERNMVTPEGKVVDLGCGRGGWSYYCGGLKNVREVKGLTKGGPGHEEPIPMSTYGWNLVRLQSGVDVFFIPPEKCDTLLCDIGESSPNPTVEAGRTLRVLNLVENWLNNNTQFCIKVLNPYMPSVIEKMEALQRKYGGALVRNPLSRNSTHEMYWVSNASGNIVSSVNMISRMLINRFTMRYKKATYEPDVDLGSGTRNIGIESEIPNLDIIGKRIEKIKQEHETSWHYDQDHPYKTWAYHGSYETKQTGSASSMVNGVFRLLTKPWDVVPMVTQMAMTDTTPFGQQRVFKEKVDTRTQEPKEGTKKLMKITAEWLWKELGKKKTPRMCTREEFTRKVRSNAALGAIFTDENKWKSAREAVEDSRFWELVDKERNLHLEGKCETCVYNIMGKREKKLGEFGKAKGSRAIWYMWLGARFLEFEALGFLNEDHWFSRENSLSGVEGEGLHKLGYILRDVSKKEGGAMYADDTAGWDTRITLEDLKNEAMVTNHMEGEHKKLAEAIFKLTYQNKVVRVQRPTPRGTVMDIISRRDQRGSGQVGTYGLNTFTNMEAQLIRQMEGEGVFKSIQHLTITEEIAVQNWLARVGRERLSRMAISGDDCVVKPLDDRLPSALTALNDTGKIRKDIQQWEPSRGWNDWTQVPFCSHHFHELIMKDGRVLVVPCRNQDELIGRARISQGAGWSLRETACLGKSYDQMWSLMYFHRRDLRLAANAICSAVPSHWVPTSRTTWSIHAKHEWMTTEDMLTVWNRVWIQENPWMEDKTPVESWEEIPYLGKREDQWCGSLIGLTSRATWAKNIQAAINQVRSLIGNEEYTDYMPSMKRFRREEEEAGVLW
The source made the active and inactive calls. No rule for the calls is given here.
reported.metric: IC50

GET /values?readout=IC50&item= O=C(O)/C=C/C(=O)c1ccc2c(c1)NC(=O)CO2
> 100 µM (active)

GET /values?readout=IC50&item= CC1(C)CC[C@]2(C(=O)O)CC[C@]3(C)C(=CC[C@@H]4[C@@]5(C)CC[C@H](O[C@@H]6O[C@H](C(=O)O)[C@@H](O)[C@H](O[C@@H]7OC[C@H](O)[C@H](O)[C@H]7O)[C@H]6O)C(C)(C)[C@@H]5CC[C@]43C)[C@@H]2C1
31 µM (active)

What value of IC50 has been reported for the following compound? Cc1nn(-c2ccccc2)c(Cl)c1/C=C1\SC(=S)N(CCCCCC(=O)O)C1=O
41.4 µM (active)

Please give the measured IC50 for this compound: CC1(OC(=O)c2ccco2)C(=O)C=C2C=C(C3CC3)OC=C2C1=O (centres undefined)
> 100 µM (active)

Request the reported IC50 associated with O=C(Nc1cccc(Oc2ccc(C(=O)O)c(C(=O)O)c2)c1)c1ccc(-c2ccccc2)cc1
20.5 µM (active)

Quick one: IC50 of O=S(=O)(Nc1nc(-c2sccc2Cl)cs1)c1cc(Cl)ccc1Cl ?
41.6 µM (active)

Which IC50 reading was recorded for the compound O=C1NN(c2cccc(Br)c2)C(=O)/C1=C\c1ccccc1 ?
35.1 µM (active)

Any idea what IC50 was measured for Oc1ccc(CN2CCCCC2)nc1O ?
64.9 µM (active)

Param item = O=C(O)c1ccc(-n2nc(C(F)(F)F)c3c2-c2ccoc2CC3)cc1 ; retrieve measured IC50.
89 µM (active)
